molecular target: tissue factor (TF) on the surface of TF-positive tumor cells (human, UniProt P13726 33-295); experiment: cell-based or functional assay
Measurement Kind: Endocytosis rate (%) on NCI-H358 cells, 2 h
Report only the number, with the unit % understood.

Identify measured Endocytosis rate (%) on NCI-H358 cells, 2 h associated with 22F11H5-hz1 (antibody, human IgG1, kappa, V domains shown, Humanized IgG1 kappa) VH: QVQLVQSGAEVKQPGASVKVSCKASGYTFTTYWMHWVRQAPGQGLEWMGMIDPSDSYTTYAQKFQGRVTLTVDTSTSTAYMELSSLRSEDTAVYYCARGSGPGLFAYWGQGTLVTVSS VL: DIQETQSPSSLSASVGDRVTITCRASQDIRNYLNWYQQKPGKAPKLLIYHTSRLQSGVPSRFSGSGSGTDYTLTISSLQPEDFATYYCQQGNMPPYTFGQGTKVEIKR 34.3

Note down Endocytosis rate (%) on NCI-H358 cells, 2 h recorded for 27H8H3-hz1 (antibody, human IgG1, kappa, V domains shown, Humanized IgG1 kappa) VH: QVQLVQSGAEVKKPGASVKVSCKASGYTFTTYWMHWVRQAPGQGLEWMGMIDPSDSYTSYAQKFQGRVTLTVDTSTSTAYMELSSLRSEDTAVYYCTRGSGPGLFAYWGQGTLVTVSS VL: DIQETQSPSSLSASVGDRVTITCRASQGISNYLNWYQQKPGKAPKLLIYHTSRLHSGVPSRFSGSVSGTDFTLTISSLQPEDFATYFCQQGNTLPYTFGQGTKVEIKR 49.2

Please give the documented Endocytosis rate (%) on NCI-H358 cells, 2 h of 30G11B7-hz1 (antibody, human IgG1, kappa, V domains shown, Humanized IgG1 kappa) VH: EVQLVESGGGLVKPGGSLRLSCAASGFTFSDYGMFWVRQAPGKGLEWVAYISRGSTTIYYADSVKGRFTISRDNAKNSLYLQMNSLRAEDTAVYFCTRRYYGDYFDYWGQGTLVTVSS VL: EIVLTQSPDFQSVTPKEKVTITCRASQSISNYLHWYQQKPDQSPKLLIKYASQSISGVPSRFSGSGSGTDFTLTINSLEAEDAATYFCQQSYNWPLTFGQGTKVEIKR 19.8

Give recorded Endocytosis rate (%) on NCI-H358 cells, 2 h. 2B12B10-hz1 (antibody, human IgG1, kappa, V domains shown, Humanized IgG1 kappa) VH: EVQLVESGGGLVQPGGSLRLSCAASGFAFSDSGMHWVRQAPGKGLEWVAYISRDSNTIYYADSVKGRFTISRDNAKNSLYLQMNSLRAEDTAVYYCGRRYYGDYFDYWGQGTLVTVSS VL: DIVLTQSPATLSLSPGERATLSCRASQRVTNYLHWYQQKPGQSPRLLIKYASQSISGIPARFSGSGSGTDFTLTISSLEPEDFAVYFCQQSYNWPLTFGQGTKVEIKR 34.3

The measured values listed here are drawn from patent US20250333541A1.
